The values you see were collected from PubChem BioAssay (Tox21).

experiment: A CellTox Green Cytotoxicity Assay to monitor cytotoxicity in HEK293 cells - 32 hour (AID 1224881); details: CellTox Green fluorescence; series mostly up to 76.8 µM; further: nearly all actives have a fitted effect of over 40% in size
Results filed as inconclusive are left out. Calls of active or inactive are those of the source. The call rests on the fitted dose curve; in most records, active means well fitted activation curve with a large enough effect in the repeat runs; inconclusive means weak or mixed curves; inactive means flat fitted curve, though single readings scatter.
One label from this list, please: True for active, False for inactive

# example entries with known answers
{"query.smiles": "COC(N)=O", "discrete.label": "False"}
{"query.smiles": "OCCCBr", "discrete.label": "False"}
{"query.smiles": "ClCc1cccc(Cl)c1", "discrete.label": "False"}

## Task GET /call?item= `Cc1cc(=O)[nH]o1` returns the recorded outcome of this test.
## Result False

## Task GET /call?item= `C=CCC1([C@H](C)CCC)C(=O)NC(=O)NC1=O` returns the recorded outcome of this test.
## Result False

## Task GET /call?item= `C/C=C/C=O` returns the recorded outcome of this test.
## Result False

## Task GET /call?item= `c1ccoc1` returns the recorded outcome of this test.
## Result False

## Task GET /call?item= `O=C(OC1CCCCC1)c1ccccc1C(=O)OC1CCCCC1` returns the recorded outcome of this test.
## Result False

## Task GET /call?item= `COCCOCCO` returns the recorded outcome of this test.
## Result False

## Task GET /call?item= `C[C@H]1CNCCc2ccc(Cl)cc21` returns the recorded outcome of this test.
## Result False

## Task GET /call?item= `CCCCN=C=O` returns the recorded outcome of this test.
## Result False

## Task GET /call?item= `CCOP(=O)(OCC)O/C(=C/Cl)c1ccc(Cl)cc1Cl` returns the recorded outcome of this test.
## Result False

## Task GET /call?item= `CCOC(=O)COc1cc(-c2nn(C)c(OC(F)F)c2Cl)c(F)cc1Cl` returns the recorded outcome of this test.
## Result False

## Task GET /call?item= `O=C(O)C1(c2ccc3c(c2)OC[C@H](Cc2ccc(-c4ccccc4)cc2)[C@H]3O)CCCC1` returns the recorded outcome of this test.
## Result True

## Task GET /call?item= `C=CC(=O)OC` returns the recorded outcome of this test.
## Result False

## Task GET /call?item= `NCCCNCCCN` returns the recorded outcome of this test.
## Result True

---

target: Nuclear receptor subfamily 1 group I member 2 (Homo sapiens) (UniProt O75469); experiment: Human pregnane X receptor (PXR) small molecule agonists, qHTS assay (AID 1346982); settings: PXR-Luc HepG2, CYP3A4 luciferase reporter, 24 h; series mostly up to 92.4 µM; further: nearly all actives have a fitted effect of over 35% in size; further: potency means the concentration at half of the fitted maximal effect
Sequence (O75469 whole entry, looked up): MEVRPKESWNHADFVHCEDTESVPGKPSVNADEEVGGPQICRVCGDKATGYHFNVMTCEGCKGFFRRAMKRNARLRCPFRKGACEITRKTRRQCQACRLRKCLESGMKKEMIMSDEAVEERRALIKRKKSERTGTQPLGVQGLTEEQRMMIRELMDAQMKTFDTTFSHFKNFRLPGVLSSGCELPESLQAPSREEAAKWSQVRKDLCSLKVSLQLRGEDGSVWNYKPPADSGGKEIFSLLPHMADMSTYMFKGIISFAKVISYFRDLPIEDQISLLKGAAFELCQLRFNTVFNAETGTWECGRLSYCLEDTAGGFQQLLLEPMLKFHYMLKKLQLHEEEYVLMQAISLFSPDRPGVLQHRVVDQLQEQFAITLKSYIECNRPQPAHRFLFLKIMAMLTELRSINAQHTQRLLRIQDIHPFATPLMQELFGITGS
Inconclusive results are not listed. Calls of active or inactive are those of the source. Calls follow the shape of the dose curve; as a rule, active = well fitted activation curve with a large enough effect in the repeat runs; inconclusive = weak or mixed curves; inactive = no such curve, though single readings can be large or run the other way.
measure: Potency

{"compound": "CNP(=O)(OC)Oc1ccc(C(C)(C)C)cc1Cl (centres undefined)", "Potency": "17.2 µM (active)"}
{"compound": "C=CC(=O)OCCCCO", "Potency": "inactive"}
{"compound": "Cc1ccccc1C(=O)Nc1cccc(OC(C)C)c1", "Potency": "13.7 µM (active)"}
{"compound": "C[C@H]1CNCCc2ccc(Cl)cc21", "Potency": "inactive"}
{"compound": "O=NN1CCNCC1", "Potency": "inactive"}
{"compound": "CCOP(=S)(OCC)SCSCC", "Potency": "inactive"}
{"compound": "O=C1C(Cl)C(CCl)CN1c1cccc(C(F)(F)F)c1 (centres undefined)", "Potency": "24.3 µM (active)"}
{"compound": "CCCCc1c(C)nc(NCC)nc1OS(=O)(=O)N(C)C", "Potency": "9.69 µM (active)"}

Turning now to a further compound:
The compound CN1C(=O)C(O)N=C(c2ccccc2)c2cc(Cl)ccc21 (centres undefined) showed Potency equal to 28.3 µM (active)

---

Biological target: Luciferin 4-monooxygenase (Photinus pyralis) (UniProt P08659)
Sequence (P08659 whole entry, looked up): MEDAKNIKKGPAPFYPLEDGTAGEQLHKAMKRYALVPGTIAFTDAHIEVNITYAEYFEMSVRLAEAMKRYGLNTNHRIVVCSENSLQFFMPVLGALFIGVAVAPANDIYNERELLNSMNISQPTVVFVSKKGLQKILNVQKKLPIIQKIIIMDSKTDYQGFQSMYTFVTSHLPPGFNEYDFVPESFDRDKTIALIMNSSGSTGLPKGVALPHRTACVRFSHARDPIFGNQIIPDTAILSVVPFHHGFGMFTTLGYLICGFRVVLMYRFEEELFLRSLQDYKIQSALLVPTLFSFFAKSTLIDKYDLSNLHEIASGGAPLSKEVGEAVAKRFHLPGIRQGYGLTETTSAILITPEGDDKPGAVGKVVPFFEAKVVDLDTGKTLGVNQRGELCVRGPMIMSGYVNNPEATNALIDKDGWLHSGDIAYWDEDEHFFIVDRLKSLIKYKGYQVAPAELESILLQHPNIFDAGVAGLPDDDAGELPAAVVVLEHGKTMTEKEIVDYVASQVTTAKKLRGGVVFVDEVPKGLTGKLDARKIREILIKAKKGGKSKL
Test: qHTS assay to identify small molecule inhibitors of firefly luciferase (AID 1224835); further: nearly all actives have a fitted effect of over 25% in size
Conditions: purified P. pyralis luciferase, luminescence inhibition; series mostly up to 115 µM
Excerpt: U.S. Tox21 Program National Center for Advancing Translational Sciences [NCATS] NIH Chemical Genomics Center [NCGC] U.S. Environmental Protection Agency [EPA] National Institutes of Environmental Health Sciences [NIEHS] National Toxicology Program [NTP] U.S. Food and Drug Administration [FDA] Tox21 Assay Overview: Firefly (Photinus pyralis) luciferase is one of the most commonly used transcriptional reporters. […]
Records with an inconclusive call do not appear. The source made the active and inactive calls. Calls follow the shape of the dose curve; as a rule, active = well fitted inhibition curve with a large enough effect in the repeat runs; inconclusive = weak or mixed curves; inactive = flat fitted curve, though single readings scatter.
One label from this list, please: active, inactive

{"molecule": "CCOC(=O)C(Cl)C(C)=O (stereo unspecified)", "discrete.label": "inactive"}
{"molecule": "CN(C)c1ccc(N(C)C)cc1", "discrete.label": "active"}
{"molecule": "CN1[C@@H]2CC[C@H]1CC(OC(=O)c1cc(Cl)cc(Cl)c1)C2 (stereo partly specified)", "discrete.label": "inactive"}
{"molecule": "O=Cc1ccc(Cl)cc1Cl", "discrete.label": "inactive"}
{"molecule": "O=C(Nc1ccccc1)Nc1ccnc(Cl)c1", "discrete.label": "active"}
{"molecule": "CCBr", "discrete.label": "inactive"}

## Task GET /call?item= `C=CCCl` returns the recorded outcome of this test.
## Result inactive

## Task GET /call?item= `COc1nn(CSP(=S)(OC)OC)c(=O)s1` returns the recorded outcome of this test.
## Result active

## Task GET /call?item= Cc1c(F)c(F)c(COC(=O)C2C(/C=C(\Cl)C(F)(F)F)C2(C)C)c(F)c1F (stereo unspecified) returns the recorded outcome of this test.
## Result inactive

## Task GET /call?item= `CCOP(=O)(OCC)SCCSCC` returns the recorded outcome of this test.
## Result inactive

## Task GET /call?item= `C[C@]12CC[C@H]3[C@@H](CCC4=CC(=O)CC[C@@H]43)[C@@H]1CC[C@@H]2OC(=O)CCC1CCCCC1` returns the recorded outcome of this test.
## Result inactive

## Task GET /call?item= `O=C(NC(=O)c1c(F)cccc1F)Nc1cc(Cl)c(Oc2ncc(C(F)(F)F)cc2Cl)c(Cl)c1` returns the recorded outcome of this test.
## Result inactive

## Task GET /call?item= `CCOP(=S)(OCC)SCSCC` returns the recorded outcome of this test.
## Result inactive

## Task GET /call?item= `C=CC(=O)OC(C)(C)C` returns the recorded outcome of this test.
## Result inactive

## Task GET /call?item= `NS(=O)(=O)C(F)(F)C(F)(F)C(F)(F)C(F)(F)C(F)(F)C(F)(F)C(F)(F)C(F)(F)F` returns the recorded outcome of this test.
## Result inactive

## Task GET /call?item= `c1ccc(CN2CCNCC2)cc1` returns the recorded outcome of this test.
## Result inactive

## Task GET /call?item= COc1cc(CC(C)N)cc2c1OCO2 (stereo unspecified) returns the recorded outcome of this test.
## Result inactive

## Task GET /call?item= `BrCCCCBr` returns the recorded outcome of this test.
## Result inactive

---

test: qHTS RealTime-Glo MT Cell Viability Assay in HepG2 cells - 32 hour (AID 1224877); conditions: RealTime-Glo luminescence; series mostly up to 76.8 µM; further: nearly all actives have a fitted effect of over 55% in size
Results filed as inconclusive are left out. Active and inactive are the calls of the source. Calls follow the shape of the dose curve; as a rule, active = well fitted cell-killing curve with a large enough effect in the repeat runs; inconclusive = weak or mixed curves; inactive = flat fitted curve, though single readings scatter.
One label from this list, please: t = active, f = inactive

## Task GET /call?item= `N#Cc1ccc(Cl)cc1` returns the recorded outcome of this test.
## Result f

## Task GET /call?item= `Clc1cc(Cl)c(Cl)c(Cl)c1` returns the recorded outcome of this test.
## Result f

## Task GET /call?item= `Cn1sc(Cl)cc1=O` returns the recorded outcome of this test.
## Result f

## Task GET /call?item= `CC(C)=CCOc1c2occc2cc2ccc(=O)oc12` returns the recorded outcome of this test.
## Result f

## Task GET /call?item= `CC(C)(Cl)[N+](=O)[O-]` returns the recorded outcome of this test.
## Result f

---

assay: qHTS assay to identify aromatase inhibitors - cell viability counter screen (AID 743084); settings: MCF-7 aro ERE viability, CellTiter-Fluor, 24 h; series mostly up to 70.3 µM;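 further: cells stimulated with testosterone during compound exposure; nearly all actives have a fitted effect of over 55% in size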
Inconclusive results are not listed. Calls of active or inactive are those of the source. The call rests on the fitted dose curve; in most records, active means well fitted cell-killing curve with a large enough effect in the repeat runs; inconclusive means weak or mixed curves, or effect the other way; inactive means no such curve, though single readings can be large or run the other way.
One label from this list, please: active, inactive

# example entries with known answers
{"compound": "CCOC(=O)[C@]1(c2ccccc2)Oc2ccccc2[C@@H]1N", "discrete.label": "inactive"}
{"compound": "O=NN1CCCCCC1", "discrete.label": "inactive"}
{"compound": "CC(C)(OO)c1ccccc1", "discrete.label": "inactive"}
{"compound": "CC(C)(C)c1cc([N+](=O)[O-])cc([N+](=O)[O-])c1O", "discrete.label": "active"}
{"compound": "BrCCCCBr", "discrete.label": "inactive"}

## Task GET /call?item= `Nc1ccc([N+](=O)[O-])cc1[N+](=O)[O-]` returns the recorded outcome of this test.
## Result inactive

## Task GET /call?item= `CC(Cl)Cl` returns the recorded outcome of this test.
## Result inactive

## Task GET /call?item= `Cc1ccc(N)cc1C` returns the recorded outcome of this test.
## Result inactive

## Task GET /call?item= `C=CC(=O)OC` returns the recorded outcome of this test.
## Result inactive

## Task GET /call?item= `Cl/C=C\Cl` returns the recorded outcome of this test.
## Result inactive

## Task GET /call?item= `O=[N+]([O-])c1ccccc1CCl` returns the recorded outcome of this test.
## Result inactive
